B1: PPFIA4 (parent)
chain: YAGNLHESGVHGALLALDENFDHN

variants of: B1; test: protein stability index of a GFP-peptide fusion (GPS, HEK-293T) (PSI 1-6); higher = more stable; conditions: c terminus: a fixed tail appended;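 also: lentivirally expressed fusions sorted by FACS into six bins by GFP to DsRed ratio, PSI derived from sequencing read proportions per bin multiplied by bin number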
Heads up, the class ranges for protein stability index are L = under 2, M = from 2 up to 3, H = 3 and over

For orientation, consider the following solved cases.
| RESIDUE_SEQUENCE | ASSIGNED_CLASS |
| --- | --- |
| YAGNLHESGVHGDLLALDENFDHN [A13D] | H |
| YAGNLHQSGVHGALLALDENFDHN [E7Q] | M |
| YAGNLHESGVQGALLALDENFDHN [H11Q] | H |

# input For this variant, which bin applies? YEGNLHESGVHGALLALDENFDHN [A2E]
# output H

# input Category of YAGNLHESGVHGALLALDENFDFN [H23F] , please.
# output M

# input Any idea which band YAGNLHESGVHGALLALDENFDVN [H23V] is in?
# output M

# input In plain terms, what class is YAGNGHESGVHGALLALDENFDHN [L5G] ?
# output M

# input Exam item: assign YAGNLHEVGVHGALLALDENFDHN [S8V] to the correct category.
# output M

# input Dear colleague, I would appreciate it if you could identify the bin for YAGNLHESGVHGTLLALDENFDHN [A13T] and reply at your convenience.
# output M

# input Please classify: YAGNLHESGVHGLLLALDENFDHN [A13L]
# output M

# input Form: Item = YAGNLHESGVHGALLALDENDDHN [F21D] ; Class = ?
# output H

# input Pick a category. Item: YAVNLHESGVHGALLALDENFDHN [G3V]
# output H

# input Which band does YAGRLHESGVHGALLALDENFDHN [N4R] fall in?
# output L

# input Which protein stability index category applies to YAGNLHESGVHGALGALDENFDHN [L15G] here?
# output H

# input Which protein stability index band matches YAGNLHESGVHGALLDLDENFDHN [A16D] ?
# output H

# input Lab note: sort YAGNLHNSGVHGALLALDENFDHN [E7N] into the matching protein stability index band.
# output L

# input Returns: class label. Input: YAGNLHESGQHGALLALDENFDHN [V10Q]
# output H

# input Categorize the following entry: DAGNLHESGVHGALLALDENFDHN [Y1D]
# output H

# input Any idea which band YAGNLHESGVHGALLALDENFDHD [N24D] is in?
# output M

# input Sort into band: YAGTLHESGVHGALLALDENFDHN [N4T]
# output M

# input Exercise: read the entry YAGNLHKSGVHGALLALDENFDHN [E7K] and state which class it falls under.
# output L

# input Which protein stability index category applies to YAGNLHESGVHGALLALDENFDHA [N24A] here?
# output M

# input Band for YAGNLHESGVHGALLALHENFDHN [D18H] ?
# output M

# input Note: place this variant into its band. Item: YAGNLHESGVHGALLALDENLDHN [F21L]
# output H

# input // bin(item) where item = YAGNLHESGVHGALLALDENPDHN [F21P]
# output H
